Each entry below carries its reported kon.
Molecular target: T1, Human PDGF-BB (human, UniProt P01127 82-190)
T1 construct: Recombinant human PDGF-BB, a dimer of two B chains; also called huPDGF-BB; hPDGF-BB
T1 sequence (P01127 82-190 limits assumed): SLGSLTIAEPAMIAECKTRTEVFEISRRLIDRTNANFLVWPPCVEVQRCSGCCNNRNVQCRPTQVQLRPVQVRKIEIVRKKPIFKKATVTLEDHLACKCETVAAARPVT
Test: Biacore SPR (Example 1.1)
readout-type: kon

1) BDI-5G2-F9 (antibody, V domains shown) VH: QVTLKESGPGILQPSQTLSLTCTFSGFSLSTFGMGVGWIRQPSGKGLEWLANIWWDDDKYYNPSLKNRLTISKDTSNSQAFLEITNVDTADTATYYCARISTGISSYYVMDAWGQGASVTVSS VL: QFTLTQPKSVSGSLRSTITIPCERSSGDIGDTYVSWYQQHLGRPPINVIYGNDQRPSEVSDRFSGSIDSSSNSASLTITNLQMDDEADYFCQSYDSDIDIVFGGGTKLTVL | ≥ 1e+07 M⁻¹ s⁻¹
2) BFU-3E2-B9-B8 (antibody, V domains shown) VH: EVQLQQSGPELQRPGASVKLSCKASGYTFTESYMYWVKQRPEQSLELIGRIDPEDGSTDYVEKFKNKATLTADTSSNTAYMQLSSLTSEDSATYFCARFGARSYFYPMDAWGQGTSVTVSS VL: DTVLTQPPALAVSPGERVSISCRASESVSTLMHWYQQKPGQQPRLLIYGASNLESGVPARFSGSGSGTDFTLTIDPVEADDTATYFCQQSWNDPWTFGGGTKLELK | ≥ 1e+07 M⁻¹ s⁻¹

Data credit: patent US20170015742A1
